Numbers sourced from paper PMC5401885.

TEST SYSTEM: CrtR (His-tagged) (Corynebacterium glutamicum ATCC 13032) (UniProt Q8NSP1)
Sequence: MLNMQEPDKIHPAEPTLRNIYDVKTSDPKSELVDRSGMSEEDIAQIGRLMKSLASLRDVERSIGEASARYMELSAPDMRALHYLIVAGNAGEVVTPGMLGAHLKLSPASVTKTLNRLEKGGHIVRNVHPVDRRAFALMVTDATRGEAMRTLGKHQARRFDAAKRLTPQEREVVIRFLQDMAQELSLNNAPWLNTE
PROCEDURE DETAILS: EMSA
REPORTED CONDITIONS: 50 mM Tris-HCl pH 7.5, 10% glycerol, 50 mM KCl, 10 mM MgCl2, 0.5 mM EDTA, 20 uL, 90 ng DNA, 30 min at room temperature; 6% DNA retardation gel
METRIC: binding

ITEM SEQUENCE	TEST SYSTEM	binding
AACTCATGGGATACTATAAATTTCTTGTAGGCACATTATTTTTATGGACCCAAATTCACACTTTCTGTACTTCATCAAAATAAAGCGCCATATACAACGATTGGGAATTTTTGCGAGATAACTGGCCGTGTGATACTCGA (double strand) [fragment B]	CrtR (His-tagged) (Corynebacterium glutamicum ATCC 13032) (UniProt Q8NSP1)	no binding
AAAAATAGGCCCTCATGGGATACTATAAATTTCTTGTAGGCACATTATTTTTATGGACCCAAATTCACACTTTCTGTACTTCATCAAAATAAAGCGCCATATACAACGATTGGGAATTTTTGCGAGATAACTGGCCGTGTGATACTCGA (double strand) [fragment I (motif 1 TTAA to GGCC)]	CrtR (His-tagged) (Corynebacterium glutamicum ATCC 13032) (UniProt Q8NSP1)	no binding
CACCAATACTACGTTCCACATCGCGAAGACTGGCCAACGATTTCATTAGCCGCCCAATTTGCGCAATGTCTTCTTCCGACATGCCAGAACGATCAACTAATTCACTTTTGGGATCACTAGTTTTAACGTCATAAATATTACGAAGTGTAGGTTCTGCCGGATGGATTTTATCTGGTTCCTGCATATTCAGCATAGTAATCACCTTTTTCTACAAAGTCAGATAAAGTTTATTTTTAAAAATATTAACTCATGGGATACTATAAATTTCTTGTAGGC (double strand) [fragment E]	CrtR (His-tagged) (Corynebacterium glutamicum ATCC 13032) (UniProt Q8NSP1)	binds
CACCAATACTACGTTCCACATCGCGAAGACTGGCCAACGATTTCATTAGCCGCCCAATTTGCGCAATGTCTTCTTCCGACATGCCAGAACGATCAACTAATTCACTTTTGGGATCACTAGTTTTAACGTCATAAATATTACGAAGTGTAGGTTCTGCCGGATGGATTTTATCTGGTTCCTGCATATTCAGCATAGTAATCACCTTTTTCTACAAAGTCAGATAAAGTTTATTTTTAAAAATATTAACTCATGGG (double strand) [fragment F]	CrtR (His-tagged) (Corynebacterium glutamicum ATCC 13032) (UniProt Q8NSP1)	binds

Next:
Reported binding of TCGAGTATCACACGGCCAGTTATCTCGCAAAAATTCCCAATCGTTGTATATGGCGCTTTATTTTGATGAAGTACAGAAAGTGTGAATTTGGGTCCATAAAAATAATGTGCCTACAAGCCCGGGATAGTATCCCATGAGGGCCTATTTTT (double strand) : no binding

###

TEST SYSTEM: CrtR (His-tagged) (Corynebacterium glutamicum ATCC 13032) (UniProt Q8NSP1)
Sequence: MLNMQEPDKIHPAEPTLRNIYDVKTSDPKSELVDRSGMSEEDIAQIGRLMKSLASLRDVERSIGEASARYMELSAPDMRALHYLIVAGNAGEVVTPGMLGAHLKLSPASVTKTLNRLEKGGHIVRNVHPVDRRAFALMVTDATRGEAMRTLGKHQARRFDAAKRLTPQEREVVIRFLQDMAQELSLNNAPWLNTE
PROCEDURE DETAILS: EMSA
REPORTED CONDITIONS: 50 mM Tris-HCl pH 7.5, 10% glycerol, 50 mM KCl, 10 mM MgCl2, 0.5 mM EDTA, 20 uL, 90 ng DNA, 30 min at room temperature; 6% DNA retardation gel
METRIC: binding

Worked cases, answers included:
ITEM SEQUENCE	binding
AAAAATATTAACTCATGGGATACTATAAATTTCTTGTAGGCACATTATTTTTATGGACCCAAATTCACACTTTCTGTACTTCATCAAAATAAAGCGCCATATACAACGATTGGGAATTTTTGCGAGATAACTGGCCGTGTGATACTCGA (double strand) [fragment C]	binds
CACCAATACTACGTTCCACATCGCGAAGACTGGCCAACGATTTCATTAGCCGCCCAATTTGCGCAATGTCTTCTTCCGACATGCCAGAACGATCAACTAATTCACTTTTGGGATCACTAGTTTTAACGTCATAAATATTACGAAGTGTAGGTTCTGCCGGATGGATTTTATCTGGTTCCTGCATATTCAGCATAGTAATCACCTTTTTCTACAAAGTCAGATAAAGTTTATTTTT (double strand) [fragment G]	no binding
AAAAATATTAACTCATGGGATACTATCCCGGGCTTGTAGGCACATTATTTTTATGGACCCAAATTCACACTTTCTGTACTTCATCAAAATAAAGCGCCATATACAACGATTGGGAATTTTTGCGAGATAACTGGCCGTGTGATACTCGA (double strand) [fragment H (motif 2 AAATTT to CCCGGG)]	binds
CATAAAAATAATGTGCCTACAAGAAATTTATAGTATCCCATGAGTTAATATTTTTAAAAATAAACTTTATCTGACTTTGTAGAAAAAGGTGATTACTATGCTGAATATGCAGGAACCAGATAAAATCCATCCGGCAGAACCTACACTTCGTAATATTTATGACGTTAAAACTAGTGATCCCAAAAGTGAATTAGTTGATCGTTCTGGCATGTCGGAAGAAGACATTGCGCAAATTGGGCGGCTAATGAAATCGTTGGCCAGTCTTCGCGATGTGGAACGTAGTATTGGTG (double strand) [fragment D]	binds
GTTCGCTACGTCCGAGTGATCACCTACAAGGACGTCAACATCGAAGAATTAGATAAGCCTGACATCATCATGCCTGAG (double strand) [cg2228 upstream fragment]	no binding

Let us examine a further case.
Query ATTCAGCATAGTAATCACCTTTTTCTACAAAGTCAGATAAAGTTTATTTTTAAAAATATTAACTCATGGGATACTATAAATTTCTTGTAGGCACATTATTTTTATGGACCCAAATTCACACTTTCTGTACTTCATCAAAATAAAGCGCCATATACAACGATTGGGAATTTTTGCGAGATAACTGGCCGTGTGATACTCGA (double strand) [fragment A (full crtE-crtR intergenic region)] on CrtR (His-tagged) (Corynebacterium glutamicum ATCC 13032) (UniProt Q8NSP1); binding returned: binds
